# TARGET_OF_ASSAY: canine TRPM8 (Canis lupus familiaris, UniProt Q1A7N1)
# Sequence (Q1A7N1 1-1104): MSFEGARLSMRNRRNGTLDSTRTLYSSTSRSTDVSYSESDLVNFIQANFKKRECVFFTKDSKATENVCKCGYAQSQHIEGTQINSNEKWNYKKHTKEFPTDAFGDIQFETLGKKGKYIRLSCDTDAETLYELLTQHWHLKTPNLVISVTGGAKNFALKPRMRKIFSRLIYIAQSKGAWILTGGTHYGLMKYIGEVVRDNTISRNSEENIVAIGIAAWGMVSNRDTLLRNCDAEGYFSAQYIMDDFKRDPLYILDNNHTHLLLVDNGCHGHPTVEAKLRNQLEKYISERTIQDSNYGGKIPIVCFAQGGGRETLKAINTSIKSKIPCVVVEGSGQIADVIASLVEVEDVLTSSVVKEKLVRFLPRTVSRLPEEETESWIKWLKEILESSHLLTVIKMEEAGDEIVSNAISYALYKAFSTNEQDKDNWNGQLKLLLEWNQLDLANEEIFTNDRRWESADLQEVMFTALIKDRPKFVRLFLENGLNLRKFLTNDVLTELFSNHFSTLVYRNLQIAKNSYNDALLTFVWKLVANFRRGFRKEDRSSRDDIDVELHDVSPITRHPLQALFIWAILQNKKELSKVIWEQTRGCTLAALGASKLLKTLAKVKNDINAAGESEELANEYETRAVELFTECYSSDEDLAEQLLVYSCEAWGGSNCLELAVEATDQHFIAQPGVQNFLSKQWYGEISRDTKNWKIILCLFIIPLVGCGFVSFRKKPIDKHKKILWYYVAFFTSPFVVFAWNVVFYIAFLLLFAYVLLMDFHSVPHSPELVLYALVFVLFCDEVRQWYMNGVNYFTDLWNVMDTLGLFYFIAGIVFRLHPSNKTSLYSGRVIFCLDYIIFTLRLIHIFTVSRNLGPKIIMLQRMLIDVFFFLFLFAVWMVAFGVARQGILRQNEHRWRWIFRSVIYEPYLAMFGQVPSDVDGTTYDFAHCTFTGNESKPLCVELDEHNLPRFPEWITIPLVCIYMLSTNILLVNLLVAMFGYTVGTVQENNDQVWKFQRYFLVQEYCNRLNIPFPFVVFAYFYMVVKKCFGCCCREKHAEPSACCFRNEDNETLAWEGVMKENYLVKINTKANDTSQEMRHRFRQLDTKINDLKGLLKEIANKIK
# TEST_DETAILS: In Vitro Canine TRPM8 Functional Assay (Ca2+-sensitive fluorescent dye, icilin activation, FLIPR/FDSS)
# MEASUREMENT_CONDITIONS: HEK293 cells stably expressing canine TRPM8, icilin activation; eight-point dose-response
Recorded pIC50 by entry
// pIC50 here means minus log10 of the molar concentration (mol/L)

Before answering, review these 6 worked examples.
1) CCOP(=O)(OCC)C(Cc1cccc(C(F)(F)F)c1F)c1sc2ccccc2c1C (racemic): 6.90
2) CC(C)OP(=O)(OC(C)C)C(Cc1cccc(OC(F)(F)F)c1)c1sc2ccccc2c1Cl (stereo not shown): 7.27
3) CCOP(=O)(OCC)C(Cc1ccccc1C)c1sc2ccccc2c1C (racemic): 6.97
4) CCOP(=O)(OCC)C(Cc1ccc(OC)c(F)c1)c1sc2ccccc2c1Br (stereo not shown): 7.23
5) CCOP(=O)(OCC)C(Cc1cc(C(F)(F)F)cc(C(F)(F)F)c1)c1sc2ccccc2c1Cl (stereo not shown): 6.63
6) CCOP(=O)(Cc1cc2ccccc2s1)OCc1ccccc1Cl (stereo not shown): 6.00

Here is another compound to look at.
Query block: Param item = CCOP(=O)(OCC)C(Cc1cc(C(F)(F)F)ccc1Cl)c1sc2ccccc2c1Br (stereo not shown) ; retrieve measured pIC50.
Result block: 6.76
